- method.description: Half life in Sprague-Dawley rat at 1 mg/kg, iv measured for 24 hrs by LC-MS/MS analysis
- Type: ADME, organism-based
- study.conditions: in vivo
experimental.endpoint: half-life (h)
Please state the figure in h; there is no need to write the unit.

Consider the compound COc1ccc(CN2C3CC2CN(c2ccc(-c4cc(N5CCC(N6CCN(CCCC#Cc7cccc8c7CN(C7CCC(=O)NC7=O)C8=O)CC6)CC5)cn5ncc(C#N)c45)cn2)C3)cn1 (stereo unspecified) and give its measured half-life.
6.98

* * *

Provide the recorded pIC50 for the entries that follow.
- Test system: BaF3
- method.description: Antiproliferative activity against mouse BaF3 cells stably expressing KIF5B-RET G810C mutant incubated for 72 hrs by CCK8 assay
- Type: functional, cell-based
- study.conditions: BaF3, 72 h
Field pIC50 (float): negative decimal logarithm of the concentration in molar.

Consider the compound COc1ccc(CN2C3CC2CN(c2ccc(-c4cc(N5CCN(C(=O)CCCCCCCNc6ccc7c(c6)C(=O)N(C6CCC(=O)NC6=O)C7=O)CC5)cn5ncc(C#N)c45)cn2)C3)cn1 (stereo unspecified) and give its measured pIC50.
6.64

Can you handle COc1ccc(CN2C3CC2CN(c2ccc(-c4cc(N5CCC(N6CCN(CCCC#Cc7cccc8c7C(=O)N(C7CCC(=O)NC7=O)C8=O)CC6)CC5)cn5ncc(C#N)c45)cn2)C3)cn1 (stereo unspecified) next?
7.27

Can you handle COc1ccc(CN2C3CC2CN(c2ccc(-c4cc(N5CCC(N6CCN(CCCC#Cc7cccc8c7CN(C7CCC(=O)NC7=O)C8=O)CC6)CC5)cn5ncc(C#N)c45)cn2)C3)cn1 (stereo unspecified) next?
8.28

Can you handle "COc1ccc(CN2C3CC2CN(c2ccc(-c4cc(N5CCNCC5)cn5ncc(C#N)c45)cn2)C3)cn1" next?
6.97

Can you handle "COc1ccc(CN2C3CC2CN(c2ccc(-c4cc(N5CCN(CCCCCCCCC(=O)N[C@H](C(=O)N6C[C@H](O)C[C@H]6C(=O)N[C@@H](C)c6ccc(-c7scnc7C)cc6)C(C)(C)C)CC5)cn5ncc(C#N)c45)cn2)C3)cn1" next?
6.28

Can you handle COc1ccc(CN2C3CC2CN(c2ccc(-c4cc(N5CCC(N6CCN(C(=O)CCCNc7ccc8c(c7)C(=O)N(C7CCC(=O)NC7=O)C8=O)CC6)CC5)cn5ncc(C#N)c45)cn2)C3)cn1 (stereo unspecified) next?
6.08

Can you handle COc1ccc(CN2C3CC2CN(c2ccc(-c4cc(N5CCN(C(=O)CCCCCNc6cccc7c6C(=O)N(C6CCC(=O)NC6=O)C7=O)CC5)cn5ncc(C#N)c45)cn2)C3)cn1 (stereo unspecified) next?
6.67

Can you handle COc1ccc(CN2C3CC2CN(c2ccc(-c4cc(N5CCC(N6CCN(C(=O)CCCCCNc7ccc8c(c7)C(=O)N(C7CCC(=O)NC7=O)C8=O)CC6)CC5)cn5ncc(C#N)c45)cn2)C3)cn1 (stereo unspecified) next?
6.74

Can you handle "COc1ccc(CN2C3CC2CN(c2ccc(-c4cc(N5CCN(CCCCC(=O)N[C@H](C(=O)N6C[C@H](O)C[C@H]6C(=O)N[C@@H](C)c6ccc(-c7scnc7C)cc6)C(C)(C)C)CC5)cn5ncc(C#N)c45)cn2)C3)cn1" next?
6.07

Can you handle "COc1ccc(CN2C3CC2CN(c2ccc(-c4cc(N5CCN(C(=O)CCCCCCCCC(=O)N[C@H](C(=O)N6C[C@H](O)C[C@H]6C(=O)N[C@@H](C)c6ccc(-c7scnc7C)cc6)C(C)(C)C)CC5)cn5ncc(C#N)c45)cn2)C3)cn1" next?
6.39

Can you handle COc1ccc(CN2C3CC2CN(c2ccc(-c4cc(N5CCN(CC6CCN(c7ccc8c(c7)C(=O)N(C7CCC(=O)NC7=O)C8=O)CC6)CC5)cn5ncc(C#N)c45)cn2)C3)cn1 (stereo unspecified) next?
6.72

Can you handle COc1ccc(CN2C3CC2CN(c2ccc(-c4cc(N5CCC(N6CCN(C(=O)CCCCCCCNc7ccc8c(c7)C(=O)N(C7CCC(=O)NC7=O)C8=O)CC6)CC5)cn5ncc(C#N)c45)cn2)C3)cn1 (stereo unspecified) next?
6.72

Can you handle COc1ccc(CN2C3CC2CN(c2ccc(-c4cc(N5CCN(C(=O)CNc6ccc7c(c6)C(=O)N(C6CCC(=O)NC6=O)C7=O)CC5)cn5ncc(C#N)c45)cn2)C3)cn1 (stereo unspecified) next?
5.88

Can you handle COc1ccc(CN2C3CC2CN(c2ccc(-c4cc(N5CCC(N6CCN(C(=O)CCCNc7cccc8c7C(=O)N(C7CCC(=O)NC7=O)C8=O)CC6)CC5)cn5ncc(C#N)c45)cn2)C3)cn1 (stereo unspecified) next?
6.83

Can you handle "COc1ccc(CN2C3CC2CN(c2ccc(-c4cc(N5CCN(C(=O)CCCCCCCCCCC(=O)N[C@H](C(=O)N6C[C@H](O)C[C@H]6C(=O)N[C@@H](C)c6ccc(-c7scnc7C)cc6)C(C)(C)C)CC5)cn5ncc(C#N)c45)cn2)C3)cn1" next?
6.09

Can you handle COc1ccc(CN2C3CC2CN(c2ccc(-c4cc(N5CCN(C6CCN(c7ccc8c(c7)C(=O)N(C7CCC(=O)NC7=O)C8=O)CC6)CC5)cn5ncc(C#N)c45)cn2)C3)cn1 (stereo unspecified) next?
6.43

Can you handle COc1ccc(CN2C3CC2CN(c2ccc(-c4cc(N5CCN(C(=O)CCCCCNc6ccc7c(c6)C(=O)N(C6CCC(=O)NC6=O)C7=O)CC5)cn5ncc(C#N)c45)cn2)C3)cn1 (stereo unspecified) next?
6.63

Can you handle COc1ccc(CN2C3CC2CN(c2ccc(-c4cc(N5CCC(N6CCN(C(=O)CCCCCCCNc7cccc8c7C(=O)N(C7CCC(=O)NC7=O)C8=O)CC6)CC5)cn5ncc(C#N)c45)cn2)C3)cn1 (stereo unspecified) next?
6.67

* * *

- method.description: Tmax in Sprague-Dawley rat at 1 mg/kg, iv measured for 24 hrs by LC-MS/MS analysis
- Format: ADME, organism-based
- study.conditions: in vivo
experimental.endpoint: Tmax (min)
Please state the figure in min; there is no need to write the unit.

Consider the molecule COc1ccc(CN2C3CC2CN(c2ccc(-c4cc(N5CCC(N6CCN(CCCC#Cc7cccc8c7CN(C7CCC(=O)NC7=O)C8=O)CC6)CC5)cn5ncc(C#N)c45)cn2)C3)cn1 (stereo unspecified) and give its measured Tmax.
4.98

* * *

- method.description: Half life in Sprague-Dawley rat at 10 mg/kg, po measured for 24 hrs by LC-MS/MS analysis
- Assay type: ADME, organism-based
- study.conditions: in vivo
experimental.endpoint: half-life
Answer format: value, then unit.

Consider the molecule COc1ccc(CN2C3CC2CN(c2ccc(-c4cc(N5CCC(N6CCN(CCCC#Cc7cccc8c7CN(C7CCC(=O)NC7=O)C8=O)CC6)CC5)cn5ncc(C#N)c45)cn2)C3)cn1 (stereo unspecified) and give its measured half-life.
8.21 h

* * *

Provide the recorded Activity for the entries that follow.
- Test system: BaF3
- method.description: PROTAC activity at CRBN/KIF5B-RET (unknown origin) expressed in mouse BaF3 cells assessed as induction of RET degradation at 10 nM incubated for 24 hrs by immunoblot analysis relative to control
- Format: cell-based
Please state the figure in %; there is no need to write the unit.

API: value(readout= Activity, system= BaF3, query= COc1ccc(CN2C3CC2CN(c2ccc(-c4cc(N5CCC(N6CCN(CCCC#Cc7ccc8c(c7)C(=O)N(C7CCC(=O)NC7=O)C8=O)CC6)CC5)cn5ncc(C#N)c45)cn2)C3)cn1 (stereo not given) )
60

Can you handle COc1ccc(CN2C3CC2CN(c2ccc(-c4cc(N5CCN(CC6CCN(c7ccc8c(c7)C(=O)N(C7CCC(=O)NC7=O)C8=O)CC6)CC5)cn5ncc(C#N)c45)cn2)C3)cn1 (stereo not given) next?
41

Can you handle COc1ccc(CN2C3CC2CN(c2ccc(-c4cc(N5CCC(N6CCN(C(=O)CCCNc7ccc8c(c7)C(=O)N(C7CCC(=O)NC7=O)C8=O)CC6)CC5)cn5ncc(C#N)c45)cn2)C3)cn1 (stereo not given) next?
39

Can you handle COc1ccc(CN2C3CC2CN(c2ccc(-c4cc(N5CCC(N6CCN(C(=O)CCCCCNc7ccc8c(c7)C(=O)N(C7CCC(=O)NC7=O)C8=O)CC6)CC5)cn5ncc(C#N)c45)cn2)C3)cn1 (stereo not given) next?
61

Can you handle COc1ccc(CN2C3CC2CN(c2ccc(-c4cc(N5CCN(C(=O)CCCNc6cccc7c6C(=O)N(C6CCC(=O)NC6=O)C7=O)CC5)cn5ncc(C#N)c45)cn2)C3)cn1 (stereo not given) next?
44

* * *

- System: BaF3
- method.description: Antiproliferative activity against mouse BaF3 cells stably expressing KIF5B-RET incubated for 72 hrs by CCK8 assay
- Type: functional, cell-based
- study.conditions: BaF3, 72 h
experimental.endpoint: pIC50
Field pIC50 (float): negative decimal logarithm of the concentration in molar.

Consider the compound COc1ccc(CN2C3CC2CN(c2ccc(-c4cc(N5CCC(N6CCN(CCCCCC#Cc7cccc8c7CN(C7CCC(=O)NC7=O)C8=O)CC6)CC5)cn5ncc(C#N)c45)cn2)C3)cn1 (stereo not drawn) and give its measured pIC50.
7.90

Can you handle COc1ccc(CN2C3CC2CN(c2ccc(-c4cc(N5CCN(C(=O)CCCNc6cccc7c6C(=O)N(C6CCC(=O)NC6=O)C7=O)CC5)cn5ncc(C#N)c45)cn2)C3)cn1 (stereo not drawn) next?
7.91

Can you handle "COc1ccc(CN2C3CC2CN(c2ccc(-c4cc(N5CCN(C(=O)CCCCC(=O)N[C@H](C(=O)N6C[C@H](O)C[C@H]6C(=O)N[C@@H](C)c6ccc(-c7scnc7C)cc6)C(C)(C)C)CC5)cn5ncc(C#N)c45)cn2)C3)cn1" next?
6.51
